- tested system: HiBit-BRM fusion protein (Homo sapiens)
- Construct: expressed in transfected cells
- Sequence (P51531 whole entry, the tested form may be a part): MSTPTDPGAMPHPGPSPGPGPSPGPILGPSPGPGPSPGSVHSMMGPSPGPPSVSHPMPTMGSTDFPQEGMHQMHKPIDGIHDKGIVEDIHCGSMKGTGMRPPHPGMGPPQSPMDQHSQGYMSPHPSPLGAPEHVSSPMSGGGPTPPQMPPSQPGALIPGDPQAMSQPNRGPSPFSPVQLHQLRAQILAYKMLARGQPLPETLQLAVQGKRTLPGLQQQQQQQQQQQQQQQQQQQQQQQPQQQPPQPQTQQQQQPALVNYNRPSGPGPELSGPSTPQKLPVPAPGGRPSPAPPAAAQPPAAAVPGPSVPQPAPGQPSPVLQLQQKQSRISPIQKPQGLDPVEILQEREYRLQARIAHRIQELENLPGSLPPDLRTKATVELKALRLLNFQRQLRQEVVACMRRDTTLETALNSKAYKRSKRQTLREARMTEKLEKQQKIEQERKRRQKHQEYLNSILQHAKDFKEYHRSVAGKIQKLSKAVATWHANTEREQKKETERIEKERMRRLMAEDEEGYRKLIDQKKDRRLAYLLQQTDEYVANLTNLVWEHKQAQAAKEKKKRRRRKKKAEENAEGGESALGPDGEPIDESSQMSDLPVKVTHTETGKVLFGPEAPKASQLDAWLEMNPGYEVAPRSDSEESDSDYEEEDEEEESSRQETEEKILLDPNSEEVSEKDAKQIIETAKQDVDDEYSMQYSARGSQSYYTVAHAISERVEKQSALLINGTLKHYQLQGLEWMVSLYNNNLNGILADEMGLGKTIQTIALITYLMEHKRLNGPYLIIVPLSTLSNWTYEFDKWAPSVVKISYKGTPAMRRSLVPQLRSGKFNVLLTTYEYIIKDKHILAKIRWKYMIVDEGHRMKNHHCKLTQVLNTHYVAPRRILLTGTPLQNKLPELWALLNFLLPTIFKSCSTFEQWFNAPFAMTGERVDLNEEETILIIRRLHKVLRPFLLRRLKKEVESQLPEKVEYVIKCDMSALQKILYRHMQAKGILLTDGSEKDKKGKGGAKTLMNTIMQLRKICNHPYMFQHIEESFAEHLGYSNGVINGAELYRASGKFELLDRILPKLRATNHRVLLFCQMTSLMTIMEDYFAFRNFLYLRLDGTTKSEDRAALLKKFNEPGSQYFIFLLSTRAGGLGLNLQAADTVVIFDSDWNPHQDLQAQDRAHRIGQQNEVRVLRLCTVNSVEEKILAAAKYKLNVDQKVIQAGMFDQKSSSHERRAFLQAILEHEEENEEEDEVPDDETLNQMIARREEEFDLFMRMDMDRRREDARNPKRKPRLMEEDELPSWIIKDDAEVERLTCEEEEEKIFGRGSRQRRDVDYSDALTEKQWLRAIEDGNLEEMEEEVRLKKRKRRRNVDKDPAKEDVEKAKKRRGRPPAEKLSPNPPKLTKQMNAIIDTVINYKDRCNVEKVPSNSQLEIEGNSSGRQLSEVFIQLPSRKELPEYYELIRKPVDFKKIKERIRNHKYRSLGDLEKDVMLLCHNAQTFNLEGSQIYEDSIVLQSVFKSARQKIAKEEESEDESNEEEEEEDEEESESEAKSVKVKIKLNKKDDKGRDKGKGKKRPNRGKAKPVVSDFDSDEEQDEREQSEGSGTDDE
- assay explanation: HiBiT-BRM cell-based degradation assay (Nano-Glo HiBiT Lytic Detection)
- assay conditions: stable HeLa cell line expressing HiBiT-BRM, 24 h incubation; read-out: BRM HiBit Degradation IC50
Hi there, I'd appreciate the recorded DC50 for every entry that follows.

Lab note: Cc1ncsc1-c1ccc(CNC(=O)[C@@H]2C[C@@H](O)CN2C(=O)[C@@H](NC(=O)CCC(=O)N2CC(c3cc4cc(-c5ccccc5O)nnc4s3)C2)C(C)(C)C)cc1 [Compound 25] gave DC50 of ≥ 1000 nM

Lab note: Cc1ncsc1-c1ccc([C@H](C)NC(=O)[C@@H]2C[C@@H](O)CN2C(=O)[C@@H](c2cc(OCCN3C[C@H]4C[C@@H](C3)[C@H]4c3cc4cc(-c5ccccc5O)nnc4s3)no2)C(C)C)cc1 [Compound 74] gave DC50 of ≥ 1000 nM

Lab note: Cc1ncsc1-c1ccc([C@H](C)NC(=O)[C@@H]2C[C@@H](O)CN2C(=O)[C@@H](c2cc(O[C@H]3C[C@@H](N4CCC(c5sc6nnc(-c7ccccc7O)cc6c5C)CC4)C3)no2)C(C)C)cc1 [Compound 61] gave DC50 of ≥ 1000 nM

Lab note: Cc1ncsc1-c1ccc(CNC(=O)[C@H]2C[C@H](O)CN2C(=O)[C@H](NC(=O)CCN2CC(c3sc4nnc(-c5ccccc5O)cc4c3C)C2)C(C)(C)C)cc1 [Compound 17] gave DC50 of ≥ 1000 nM

Lab note: Cc1ncsc1-c1ccc([C@H](C)NC(=O)[C@@H]2C[C@@H](O)CN2C(=O)[C@@H](c2cc(N3C[C@H]4C[C@@H]3CN4C(=O)[C@H]3CCc4sc5nnc(-c6ccccc6O)cc5c4C3)no2)C(C)C)cc1 [Compound 41] gave DC50 of ≥ 10 nM

Lab note: Cc1ncsc1-c1ccc([C@H](C)NC(=O)[C@@H]2C[C@@H](O)CN2C(=O)[C@@H](c2cc(O[C@H]3CC[C@@H]3N3CCC(c4sc5nnc(-c6ccccc6O)cc5c4C)CC3)no2)C(C)C)cc1 [Compound 36] gave DC50 of ≥ 10 nM

Lab note: Cc1ncsc1-c1ccc([C@H](C)NC(=O)[C@@H]2C[C@@H](O)CN2C(=O)[C@@H](c2cc(N3CCC(CN4CCC(c5sc6nnc(-c7ccccc7O)cc6c5C)CC4)CC3)no2)C(C)C)cc1 [Compound 94] gave DC50 of < 10 nM

Lab note: Cc1ncsc1-c1ccc([C@H](C)NC(=O)[C@@H]2C[C@@H](O)CN2C(=O)[C@@H](c2cc(OCCN3CC4(CC(c5sc6nnc(-c7ccccc7O)cc6c5C)C4)C3)no2)C(C)C)cc1 [Compound 88] gave DC50 of ≥ 10 nM

Lab note: Cc1cc([C@H](C(=O)N2C[C@H](O)C[C@H]2C(=O)NCc2ccc(-c3scnc3C)cc2OCCCN2CCC(c3sc4nnc(-c5ccccc5O)cc4c3C)CC2)C(C)C)on1 [Compound 57] gave DC50 of ≥ 10 nM

Lab note: Cc1ncsc1-c1ccc([C@H](C)NC(=O)[C@@H]2C[C@@H](O)CN2C(=O)[C@@H](c2cc(OCCN3CC(Cc4c(C)sc5nnc(-c6ccccc6O)cc45)C3)no2)C(C)C)cc1 [Compound 110] gave DC50 of ≥ 1000 nM

Lab note: Cc1ncsc1-c1ccc([C@H](C)NC(=O)[C@@H]2C[C@@H](O)CN2C(=O)[C@@H](c2cc(OCCNC(=O)[C@H]3CCc4sc5nnc(-c6ccccc6O)cc5c4C3)no2)C(C)C)cc1 [Compound 45] gave DC50 of ≥ 100 nM

Lab note: Cc1ncsc1-c1ccc([C@H](C)NC(=O)[C@@H]2C[C@@H](O)CN2C(=O)[C@@H](c2cc(OCCN3C[C@H]4C[C@@H]3C[C@@H]4c3sc4nnc(-c5ccccc5O)cc4c3C)no2)C(C)C)cc1 [Compound 58] gave DC50 of ≥ 10 nM

Lab note: Cc1ncsc1-c1ccc([C@H](C)NC(=O)[C@@H]2C[C@@H](O)CN2C(=O)[C@@H](c2cc(OCC(=O)N3CCc4sc5nnc(-c6ccccc6O)cc5c4C3)no2)C(C)C)cc1 [Compound 91] gave DC50 of ≥ 1000 nM

Lab note: Cc1ncsc1-c1ccc([C@H](C)NC(=O)[C@@H]2C[C@@H](O)CN2C(=O)[C@@H](c2cc(OCCN3C[C@H]4C[C@@H](C3)[C@H]4c3sc4nnc(-c5ccccc5O)cc4c3C)no2)C(C)C)cc1 [Compound 62] gave DC50 of ≥ 1000 nM

Lab note: Cc1ncsc1-c1ccc(CNC(=O)[C@@H]2C[C@@H](O)CN2C(=O)[C@@H](NC(=O)C2(F)CC2)C(C)(C)C)c(OCC(=O)N2CCC(c3cc4nnc(-c5ccccc5O)cc4s3)CC2)c1 [Compound 75] gave DC50 of ≥ 1000 nM

Lab note: Cc1ncsc1-c1ccc([C@H](C)NC(=O)[C@@H]2C[C@@H](O)CN2C(=O)[C@@H](c2cc(C34CC(C(=O)N5CCC(c6sc7nnc(-c8ccccc8O)cc7c6C)CC5)(C3)C4)no2)C(C)C)cc1 [Compound 64] gave DC50 of < 10 nM

Lab note: Cc1ncsc1-c1ccc([C@H](C)NC(=O)[C@@H]2C[C@@H](O)CN2C(=O)[C@@H](c2cc(N3CCC(C(=O)N4CCc5sc6nnc(-c7ccccc7O)cc6c5C4)CC3)no2)C(C)C)cc1 [Compound 11] gave DC50 of ≥ 100 nM

Lab note: Cc1ncsc1-c1ccc([C@H](C)NC(=O)[C@@H]2C[C@@H](O)CN2C(=O)[C@@H](c2cc(N3CCC(N4CCc5sc6nnc(-c7ccccc7O)cc6c5C4)CC3)no2)C(C)C)cc1 [Compound 70] gave DC50 of ≥ 1000 nM

Lab note: Cc1ncsc1-c1ccc(CNC(=O)[C@@H]2C[C@@H](O)CN2C(=O)[C@@H](NC(=O)CCCC(=O)N2CCC(c3cc4cc(-c5ccccc5O)nnc4s3)CC2)C(C)(C)C)cc1 [Compound 28] gave DC50 of ≥ 1000 nM
